- measured_target: Endoribonuclease Dicer (Homo sapiens)
- experimental_protocol: Dicer cleavage of pre-miR-21 blockers – biochemical, cat-ELCCA, chemiluminescence, primary screen (AID 1347074);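 further: plate controls were vehicle for no effect and no enzyme for full effect; higher signal means more uncleaved substrate so more Dicer inhibition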
- assay_setup: cat-ELCCA pre-miR-21 Dicer processing, at 25 µM
Hit rate of the full screen: of about 47,000 compounds, about 2,800 (6%) were called active. No stated cut-off is given here; in the data, active means z-score above about 3 (passing the limit was not always enough); inactive means the rest. For the sample, actives were picked, then their nearest neighbours and some compounds at random.
Bench note: report the call from 1 (yes) = active, 0 (no) = inactive

See these solved cases before continuing.
compound: Nc1ccc(/C=C/c2nc3ccccc3[nH]2)cc1
assigned_category: 1 (yes)

compound: O=C(OCCN1CCCCC1)C1COc2ccccc2O1 (centres undefined)
assigned_category: 1 (yes)

compound: CCCc1c(C)nc2scc(-c3ccc(Cl)cc3)n2c1=O
assigned_category: 0 (no)

compound: COc1cc(CN(Cc2ccccc2)C(=S)Nc2c(C)cccc2C)cc(OC)c1OC
assigned_category: 0 (no)

compound: N#C/C(=C\c1sccc1Oc1ccccc1)S(=O)(=O)c1ccc(Cl)cc1
assigned_category: 0 (no)

Could you kindly confirm the outcome this assay logged for CCOc1ccc(/C(O)=C2\C(=O)C(=O)N(c3nccs3)C2c2ccc(F)cc2)cc1 (centres undefined) ? 0 (no)

Returns: the outcome recorded for O=[N+]([O-])c1ccc(S(=O)(=O)c2ccccc2)cc1OS(=O)(=O)c1ccc(Cl)cc1 in this assay. 0 (no)

Kindly provide the recorded test outcome for the following compound: Cc1cccc(C)c1NC(=S)NCCC(=O)O 0 (no)

For CCOC(=O)/C(C#N)=C/N=C(N/N=C(\C)c1cc2ccccc2o1)SC , what call appears in the results of this test? 0 (no)

GET /call?item= COc1ccc(C2CC(=O)c3cn4nc(C)nc4nc3C2)cc1OC (centres undefined) returns the recorded outcome of this test. 0 (no)

Please state the recorded outcome for this compound: Cn1nccc1NC(=O)CC(CC(=O)O)c1ccccc1 (centres undefined) 0 (no)

For O=C(OCCN1CCOCC1)C1(c2ccccc2)CCCCC1 , which call appears in the assay record? 0 (no)

Assay outcome for Oc1c(C(Nc2ccccn2)c2ccncc2)ccc2cccnc12 (centres undefined) : what was it? 0 (no)

Which outcome did this test record for the compound O=C(O)CC(CC(=O)Oc1ccccc1N1CCCCC1)c1ccccc1 (centres undefined) ? 1 (yes)

Name the outcome recorded for CCCC1c2ccsc2CCN1C(=S)Nc1ccccc1C(=O)OC (centres undefined) in the assay. 0 (no)

What classification did CCN(C(=S)Nc1c(C)cccc1C)c1ccccc1 end up with in this test? 1 (yes)

----------
- measured_target: Endoribonuclease Dicer (Homo sapiens)
- experimental_protocol: Dicer cleavage of pre-miR-21 blockers – biochemical, cat-ELCCA, chemiluminescence, primary screen (AID 1347074);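 further: plate controls were vehicle for no effect and no enzyme for full effect; higher signal means more uncleaved substrate so more Dicer inhibition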
- assay_setup: cat-ELCCA pre-miR-21 Dicer processing, at 25 µM
Among all 47,000 compounds or so, about 2,800 (6%) were called active. Rule as the data show it: active = z-score above about 3 (passing the limit was not always enough); inactive = the rest. Only a selection was taken, and actives are over-represented in it overall.
Hello, when you answer, please use one of the following outcomes: active, inactive

Worked examples, 8 compounds total:
compound: COc1ccc(C2=Nc3ccccc3SC(c3ccc(OC)c(O)c3)C2)c(O)c1 (stereo unspecified)
assigned_category: inactive

compound: CCOC(=O)C1=C(c2ccccc2)Nc2nc3ccccc3n2C1c1ccc(O)c(OCC)c1 (stereo unspecified)
assigned_category: inactive

compound: COC(=O)c1ccccc1-c1c2ccc(=O)cc-2oc2cc(O)ccc12
assigned_category: active

compound: O=C1C=C(NNc2ccccc2)CCC1
assigned_category: active

compound: CCOC(=O)C1=C(C)Nc2nnnn2C1c1ccc(O)cc1 (stereo unspecified)
assigned_category: inactive

compound: CCCOC(=O)C1=C(C)Nc2nnnn2C1c1cc(Br)ccc1OC (stereo unspecified)
assigned_category: active

compound: CN1C(=O)C2(/C(=C(/O)c3ccc(Cl)cc3)C(=O)C(=O)N2CC2CCCO2)c2ccccc21 (stereo unspecified)
assigned_category: inactive

compound: CC1(C)CC(=O)C=C(Nc2ccccc2)C1
assigned_category: inactive

Please state the recorded outcome for this compound: CCOC(=O)C1=C(C)NC2=C(C(=O)c3ccccc32)C1c1cccc(F)c1 (stereo unspecified) inactive

Per the assay record, what outcome was assigned to O=C(Nc1cc(C(F)(F)F)cc(C(F)(F)F)c1)c1csc([N+](=O)[O-])c1 ? inactive

Recorded test outcome, item Fc1ccc2onc(-c3cnn(-c4ccccc4)c3)c2c1 active

Values compiled from PubChem BioAssay AID1347074.
